# System tested: PIKfyve (Homo sapiens, UniProt Q9Y2I7)
# Sequence (Q9Y2I7 whole entry, species assumed): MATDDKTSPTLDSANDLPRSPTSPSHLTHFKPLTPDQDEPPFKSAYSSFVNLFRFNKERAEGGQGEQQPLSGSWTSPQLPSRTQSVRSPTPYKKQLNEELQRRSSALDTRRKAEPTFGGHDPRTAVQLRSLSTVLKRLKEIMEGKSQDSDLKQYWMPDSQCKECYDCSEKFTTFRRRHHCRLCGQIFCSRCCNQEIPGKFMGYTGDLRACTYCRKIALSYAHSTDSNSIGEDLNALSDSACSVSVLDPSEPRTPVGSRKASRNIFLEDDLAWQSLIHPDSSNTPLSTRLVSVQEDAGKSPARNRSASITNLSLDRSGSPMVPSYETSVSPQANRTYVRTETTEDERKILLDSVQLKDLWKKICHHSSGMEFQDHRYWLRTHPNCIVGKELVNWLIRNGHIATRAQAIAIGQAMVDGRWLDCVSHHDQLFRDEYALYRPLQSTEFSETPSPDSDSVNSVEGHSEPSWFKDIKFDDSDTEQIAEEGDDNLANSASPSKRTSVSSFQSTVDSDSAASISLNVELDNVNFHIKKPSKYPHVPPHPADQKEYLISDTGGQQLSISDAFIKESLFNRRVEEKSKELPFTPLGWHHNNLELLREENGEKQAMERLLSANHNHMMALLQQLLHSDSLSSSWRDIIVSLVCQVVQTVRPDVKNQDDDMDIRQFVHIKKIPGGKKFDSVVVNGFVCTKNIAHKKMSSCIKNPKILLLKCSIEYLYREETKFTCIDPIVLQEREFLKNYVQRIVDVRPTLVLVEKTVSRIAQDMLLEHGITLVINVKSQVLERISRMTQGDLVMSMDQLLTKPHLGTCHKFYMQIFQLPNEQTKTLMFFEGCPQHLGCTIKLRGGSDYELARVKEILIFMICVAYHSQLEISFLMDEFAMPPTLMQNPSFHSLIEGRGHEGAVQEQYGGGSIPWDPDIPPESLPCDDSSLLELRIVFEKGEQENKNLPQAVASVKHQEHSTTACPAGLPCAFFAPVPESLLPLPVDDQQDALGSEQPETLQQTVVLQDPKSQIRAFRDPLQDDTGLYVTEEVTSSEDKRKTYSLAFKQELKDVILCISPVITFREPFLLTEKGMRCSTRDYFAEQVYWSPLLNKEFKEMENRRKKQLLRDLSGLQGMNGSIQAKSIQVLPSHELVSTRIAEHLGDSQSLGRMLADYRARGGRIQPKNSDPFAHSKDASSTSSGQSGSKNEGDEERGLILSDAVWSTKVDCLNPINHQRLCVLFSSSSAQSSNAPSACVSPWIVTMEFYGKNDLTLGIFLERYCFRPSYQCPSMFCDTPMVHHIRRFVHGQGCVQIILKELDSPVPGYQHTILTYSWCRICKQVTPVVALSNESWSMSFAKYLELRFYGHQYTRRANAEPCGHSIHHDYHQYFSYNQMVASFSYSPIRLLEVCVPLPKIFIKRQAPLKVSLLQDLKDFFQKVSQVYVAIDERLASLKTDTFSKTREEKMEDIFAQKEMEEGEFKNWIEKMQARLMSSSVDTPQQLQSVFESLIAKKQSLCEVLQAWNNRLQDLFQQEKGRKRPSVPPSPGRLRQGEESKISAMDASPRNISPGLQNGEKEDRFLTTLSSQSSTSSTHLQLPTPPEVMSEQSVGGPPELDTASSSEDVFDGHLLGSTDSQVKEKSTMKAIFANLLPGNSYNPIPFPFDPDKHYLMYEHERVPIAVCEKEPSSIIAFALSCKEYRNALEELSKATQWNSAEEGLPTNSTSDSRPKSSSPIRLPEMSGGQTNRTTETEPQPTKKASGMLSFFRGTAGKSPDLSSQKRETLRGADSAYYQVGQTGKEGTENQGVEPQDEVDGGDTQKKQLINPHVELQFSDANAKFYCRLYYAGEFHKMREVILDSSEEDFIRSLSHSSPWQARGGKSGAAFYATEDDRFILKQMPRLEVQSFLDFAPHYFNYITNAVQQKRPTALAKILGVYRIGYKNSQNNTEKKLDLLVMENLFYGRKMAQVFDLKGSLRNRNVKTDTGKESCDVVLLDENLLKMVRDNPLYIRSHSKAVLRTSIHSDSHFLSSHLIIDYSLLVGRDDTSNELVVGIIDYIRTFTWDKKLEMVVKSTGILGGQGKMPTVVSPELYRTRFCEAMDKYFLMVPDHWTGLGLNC
pKi: −log10 of the molar value.
Outcome measure: pKi

Give the measured pKi of CN1C(=O)[C@@H](CC2CCCC2)N(C2CCCC2)c2nc(Nc3cc(Cl)c(O)c(Cl)c3)ncc21 [7a] . ~6.70

* * *

Please go through the items and note down their pKi.
# System tested: UniProt P48426
# Protocol: PI5P4Kα kinase assay, 32P-labelled PI(4,5)P2 product resolved by TLC
pKi: −log10 of the molar value.

Examples with their reported pKi follow.
Smiles: CN1C(=O)[C@@H](CC2CCCC2)N(C2CCCC2)c2nc(Nc3ncc(C(=O)O)s3)ncc21
System tested: UniProt P48426
pKi: 7.05 to 7.52
--
Smiles: CN1C(=O)[C@@H](CC2CCCC2)N(C2CCCC2)c2nc(Nc3ccc4[nH]nnc4c3)ncc21
System tested: UniProt P48426
pKi: 6.15 to 6.70
--
Smiles: CN1C(=O)[C@@H](CC2CCCC2)N(C2CCCC2)c2nc(Nc3cc(F)c(C(=O)O)c(F)c3)ncc21
System tested: UniProt P48426
pKi: 6.96 to 7.26
--
Smiles: CN1C(=O)[C@@H](Cc2ccccn2)N(C2CCCC2)c2nc(Nc3ncc(C(=O)O)s3)ncc21
System tested: UniProt P48426
pKi: 7.00 to 7.30
--
Smiles: CN1C(=O)[C@@H](Cc2ccccn2)N(C2CCCC2)c2nc(Nc3cc(Cl)c(O)c(Cl)c3)ncc21
System tested: UniProt P48426
pKi: 7.22 to 7.70

Give the measured pKi of `CN1C(=O)[C@@H](CC2CCCC2)N(C2CCCC2)c2nc(Nc3csc(C(=O)O)c3)ncc21` . 6.66 to 6.96

* * *

# System tested: PI3Kδ (Homo sapiens, UniProt O00329)
# Sequence (O00329 whole entry, species assumed): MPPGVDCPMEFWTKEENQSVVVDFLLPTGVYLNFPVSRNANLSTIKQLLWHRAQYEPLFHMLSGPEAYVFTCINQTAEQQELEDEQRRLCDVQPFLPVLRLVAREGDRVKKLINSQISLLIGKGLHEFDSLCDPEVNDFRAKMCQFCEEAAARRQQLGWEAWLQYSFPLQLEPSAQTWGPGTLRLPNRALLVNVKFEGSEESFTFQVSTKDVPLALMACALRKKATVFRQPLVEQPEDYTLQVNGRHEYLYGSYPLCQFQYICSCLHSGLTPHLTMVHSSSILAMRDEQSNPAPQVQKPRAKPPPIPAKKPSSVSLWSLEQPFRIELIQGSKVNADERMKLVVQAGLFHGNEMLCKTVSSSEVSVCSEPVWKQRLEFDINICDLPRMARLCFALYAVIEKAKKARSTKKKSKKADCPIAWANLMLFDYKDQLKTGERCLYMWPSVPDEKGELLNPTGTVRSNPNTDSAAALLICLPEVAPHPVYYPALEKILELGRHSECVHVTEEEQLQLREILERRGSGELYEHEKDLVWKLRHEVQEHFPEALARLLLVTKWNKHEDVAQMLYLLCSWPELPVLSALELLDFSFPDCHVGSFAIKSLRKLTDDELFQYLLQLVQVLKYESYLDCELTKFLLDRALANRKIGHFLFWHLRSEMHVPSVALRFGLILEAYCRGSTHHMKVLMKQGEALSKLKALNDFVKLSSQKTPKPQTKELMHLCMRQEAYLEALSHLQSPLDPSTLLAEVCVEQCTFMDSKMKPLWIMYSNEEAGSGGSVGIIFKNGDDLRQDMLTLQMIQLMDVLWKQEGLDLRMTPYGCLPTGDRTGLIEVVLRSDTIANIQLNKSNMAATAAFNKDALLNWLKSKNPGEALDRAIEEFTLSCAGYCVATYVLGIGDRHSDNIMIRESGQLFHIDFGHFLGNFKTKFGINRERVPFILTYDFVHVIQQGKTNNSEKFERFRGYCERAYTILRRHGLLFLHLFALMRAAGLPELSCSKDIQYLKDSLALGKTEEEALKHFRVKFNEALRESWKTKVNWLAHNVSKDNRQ
# Sequence (P27986 whole entry partner, species assumed): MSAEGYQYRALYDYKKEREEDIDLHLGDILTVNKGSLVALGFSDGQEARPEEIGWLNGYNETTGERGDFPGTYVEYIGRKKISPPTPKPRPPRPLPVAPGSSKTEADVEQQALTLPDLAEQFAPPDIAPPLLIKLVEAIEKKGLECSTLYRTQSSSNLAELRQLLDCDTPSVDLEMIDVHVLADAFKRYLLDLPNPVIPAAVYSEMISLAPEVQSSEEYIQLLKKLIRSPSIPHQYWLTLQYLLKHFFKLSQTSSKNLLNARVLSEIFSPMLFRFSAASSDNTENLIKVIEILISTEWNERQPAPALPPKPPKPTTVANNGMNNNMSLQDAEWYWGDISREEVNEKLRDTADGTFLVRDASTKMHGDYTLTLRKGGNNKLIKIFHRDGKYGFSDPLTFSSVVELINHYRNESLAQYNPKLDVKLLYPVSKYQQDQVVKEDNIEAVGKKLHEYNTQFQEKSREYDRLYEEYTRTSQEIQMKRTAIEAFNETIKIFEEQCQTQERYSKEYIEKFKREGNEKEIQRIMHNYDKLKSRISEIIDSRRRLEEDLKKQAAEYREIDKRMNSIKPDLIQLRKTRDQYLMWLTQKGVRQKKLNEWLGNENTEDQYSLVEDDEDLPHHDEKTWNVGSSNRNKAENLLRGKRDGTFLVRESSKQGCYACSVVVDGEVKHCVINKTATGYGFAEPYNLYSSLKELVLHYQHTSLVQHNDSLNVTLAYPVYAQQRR
pKi: −log10 of the molar value.
Outcome measure: pKi

Give the measured pKi of `CN1C(=O)[C@@H](CC2CCCC2)N(C2CCCC2)c2nc(Nc3cc(Cl)c(O)c(Cl)c3)ncc21` . ~6.92

* * *

# System tested: PI5P4Kα (Homo sapiens, UniProt P48426)
# Sequence (P48426 whole entry): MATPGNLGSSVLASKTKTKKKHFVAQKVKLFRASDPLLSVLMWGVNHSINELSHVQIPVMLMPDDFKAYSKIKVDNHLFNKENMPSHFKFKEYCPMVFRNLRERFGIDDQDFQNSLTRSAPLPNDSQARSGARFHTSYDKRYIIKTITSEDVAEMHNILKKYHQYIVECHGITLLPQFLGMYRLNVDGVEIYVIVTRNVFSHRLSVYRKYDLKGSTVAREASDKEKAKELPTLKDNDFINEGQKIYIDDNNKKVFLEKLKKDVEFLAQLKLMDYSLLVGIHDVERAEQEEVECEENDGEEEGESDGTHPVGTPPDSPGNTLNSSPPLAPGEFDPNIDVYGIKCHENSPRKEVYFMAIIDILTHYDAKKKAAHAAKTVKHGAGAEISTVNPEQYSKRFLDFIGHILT
Outcome measure: Kd

Give the measured Kd of CC(C)CCN1c2nc(Nc3cc(F)c(O)c(F)c3)ncc2N(C)C(=O)C1C (stereo not shown) . ~1300 nM

* * *

Protein target, amino acids: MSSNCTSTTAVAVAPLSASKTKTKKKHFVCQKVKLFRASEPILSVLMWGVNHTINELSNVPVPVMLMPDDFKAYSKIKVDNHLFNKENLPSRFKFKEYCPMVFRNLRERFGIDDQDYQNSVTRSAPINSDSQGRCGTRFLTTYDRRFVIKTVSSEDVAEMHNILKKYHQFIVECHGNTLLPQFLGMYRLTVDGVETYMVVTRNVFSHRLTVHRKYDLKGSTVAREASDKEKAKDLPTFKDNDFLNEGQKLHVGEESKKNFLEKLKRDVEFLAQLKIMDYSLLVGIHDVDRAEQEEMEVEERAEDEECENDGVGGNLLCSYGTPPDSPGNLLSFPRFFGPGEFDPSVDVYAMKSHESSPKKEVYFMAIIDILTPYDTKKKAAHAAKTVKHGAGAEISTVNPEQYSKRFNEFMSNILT
Outcome measure: Ki

Smiles: CN1C(=O)[C@@H](Cc2ccccn2)N(C2CCCC2)c2nc(Nc3ncc(C(=O)O)s3)ncc21
Outcome measure: Ki
Reported value: 400 to 800 nM

Give me Ki for each of these compounds, listed below.
1. CN1C(=O)[C@@H](CC2CCCC2)N(C2CCCC2)c2nc(Nc3cc(F)c(C(=O)O)c(F)c3)ncc21
2. CN1C(=O)[C@@H](CC2CCCC2)N(C2CCCC2)c2nc(Nc3ccc4[nH]nnc4c3)ncc21
3. CN1C(=O)[C@@H](Cc2ccccn2)N(C2CCCC2)c2nc(Nc3ccc4[nH]nnc4c3)ncc21

["75 to 150 nM", "80 to 230 nM", "100 to 200 nM"]

* * *

# System tested: RSK2 (Homo sapiens, UniProt P51812)
# Sequence (P51812 whole entry): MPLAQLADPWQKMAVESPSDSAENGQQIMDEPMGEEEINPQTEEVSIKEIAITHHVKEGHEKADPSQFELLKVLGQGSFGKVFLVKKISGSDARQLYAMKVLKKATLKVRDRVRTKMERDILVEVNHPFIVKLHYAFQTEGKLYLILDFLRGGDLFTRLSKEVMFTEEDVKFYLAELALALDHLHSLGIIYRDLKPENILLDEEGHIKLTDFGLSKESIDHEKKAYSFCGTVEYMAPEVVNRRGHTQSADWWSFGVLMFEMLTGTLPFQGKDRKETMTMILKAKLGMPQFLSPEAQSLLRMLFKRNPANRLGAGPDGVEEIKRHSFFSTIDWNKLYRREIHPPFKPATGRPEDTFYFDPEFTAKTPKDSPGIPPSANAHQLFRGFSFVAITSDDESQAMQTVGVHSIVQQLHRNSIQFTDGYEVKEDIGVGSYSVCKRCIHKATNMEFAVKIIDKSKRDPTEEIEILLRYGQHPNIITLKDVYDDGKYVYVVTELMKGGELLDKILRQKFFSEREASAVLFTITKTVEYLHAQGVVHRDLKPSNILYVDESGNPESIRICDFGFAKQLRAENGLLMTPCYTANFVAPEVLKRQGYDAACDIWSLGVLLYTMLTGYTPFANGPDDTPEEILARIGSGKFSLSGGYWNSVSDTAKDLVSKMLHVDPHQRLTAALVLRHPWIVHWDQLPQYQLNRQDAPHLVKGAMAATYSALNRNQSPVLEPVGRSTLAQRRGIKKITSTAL
pKi: −log10 of the molar value.
Outcome measure: pKi

Give the measured pKi of CN1C(=O)[C@@H](CC2CCCC2)N(C2CCCC2)c2nc(Nc3cc(Cl)c(O)c(Cl)c3)ncc21 [7a] . ~6.00

* * *

# System tested: PI5P4Kα (Homo sapiens)
# Protocol: PI5P4Kα in vitro kinase assay based on ADP detection (ADP-Glo), kinetic studies
# Type: biochemical
# Set-up: made in house
# Stated conditions: competitive with ATP
Outcome measure: Ki

Give the measured Ki of CC(C)CCN1c2nc(Nc3cc(F)c(O)c(F)c3)ncc2N(C)C(=O)C1C (stereo not shown) . ~1000 nM

* * *

# System tested: PI4P5Kα (Homo sapiens, UniProt Q99755)
Outcome measure: Ki

Give the measured Ki of `CN1C(=O)[C@@H](CC2CCCC2)N(C2CCCC2)c2nc(Nc3cc(Cl)c(O)c(Cl)c3)ncc21` . ~5 µM
